# credit: the supplement of paper PMC10567573

Exercise: for every item that follows, state its recorded protein stability index.
B1: SLC22A15 (parent)
chain: IAQYALLGYFIRSWRTLAILVNLQ

- Variants of: B1
- Test Details: protein stability index of a GFP-peptide fusion (GPS, HEK-293T) (PSI 1-6); higher = more stable;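 also: lentivirally expressed fusions sorted by FACS into six bins by GFP to DsRed ratio, PSI derived from sequencing read proportions per bin multiplied by bin number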
- Condition: c terminus: a fixed tail appended
Numbers only.

Sample records with protein stability index:
Ask: Fill in the blank: the reported protein stability index of IAQYALLGYAIRSWRTLAILVNLQ [F10A] is ____.
Result: 3.58

Ask: Fill in the blank: the reported protein stability index of IAQYALLGYFITSWRTLAILVNLQ [R12T] is ____.
Result: 1.97

Ask: Fill in the blank: the reported protein stability index of IAQYALLGCFIRSWRTLAILVNLQ [Y9C] is ____.
Result: 2.75

Ask: Fill in the blank: the reported protein stability index of IAQYALLGYFIRSWRTLAILVNLL [Q24L] is ____.
Result: 3.01

Value sought for every listed variant: protein stability index.
1. IAQYALLGYFIRSWRPLAILVNLQ [T16P]
2. IAQYALLGYFIRSWRTLAILVGLQ [N22G]
3. IAQYALLGYFIRSWRTLSILVNLQ [A18S]

Result:
1. 5.02
2. 1.88
3. 3.54

Value sought for every listed variant: protein stability index.
1. IAQYALLGYFIRSWRTLAPLVNLQ [I19P]
2. IAQYALLGYFIRSDRTLAILVNLQ [W14D]
3. IAQYALLGYFIDSWRTLAILVNLQ [R12D]
4. IAQIALLGYFIRSWRTLAILVNLQ [Y4I]

Result:
[3.94, 2.61, 1.86, 1.57]

Value sought for every listed variant: protein stability index.
1. IAQYALLGYFIRSWRTLQILVNLQ [A18Q]
2. IAQYALLGYFIRSWRTLLILVNLQ [A18L]
3. IAQYALLGYFIRSWRTLAILVNFQ [L23F]
4. IAQYALLGYFIRSWRTLAILVNGQ [L23G]
5. IAQYALLGYFIRSWRTLAILVNLH [Q24H]
6. IAQYANLGYFIRSWRTLAILVNLQ [L6N]

Result:
1. 2.15
2. 3.84
3. 2.79
4. 3.35
5. 2.79
6. 2.26

Value sought for every listed variant: protein stability index.
1. IAQYALLGYFIESWRTLAILVNLQ [R12E]
2. IAQYALLGQFIRSWRTLAILVNLQ [Y9Q]
3. IAGYALLGYFIRSWRTLAILVNLQ [Q3G]
4. IAQYALLIYFIRSWRTLAILVNLQ [G8I]
5. IAQYAYLGYFIRSWRTLAILVNLQ [L6Y]

Result:
3.81
4.48
3.38
3.12
2.49
